- System: zebrafish embryos
- assay: animal or person
- Type: in vivo, zebrafish (Danio rerio)
- assay-context: zebrafish, in vivo; listed as Ive; read-out: EC50;nom (mFET)
pEC50: −log10 of the molar value.
value-type: pEC50

INSERT INTO measurements (compound, value_type, recorded_number) VALUES
  ('CCC(C)C1OC2(CCC1C)CC1CC(CC=C(C)C(OC3CC(OC)C(OC4CC(OC)C(O)C(C)O4)C(C)O3)C(C)C=CC=C3COC4C(O)C(C)=CC(C(=O)O1)C34O)O2 (stereo not shown)', 'pEC50', 5.77);

###

- System: ZFL (hepatocytes) cell line
- assay: cells
- Format: cell-based, zebrafish (Danio rerio)
- assay-context: Danio rerio, Hepatocyte; ATP - ZFL; log10 of IC50; read-out: LogIC50 (converted)
value-type: IC50

INSERT INTO measurements (compound, value_type, result) VALUES
  ('COC(=O)Nc1nc2ccc([S+]([O-])c3ccccc3)cc2[nH]1 (stereo not shown) [Oxfendazole, oxfendazole]', 'IC50', '106 µM'),
  ('COC(=O)Nc1nc2ccc(Sc3ccccc3)cc2[nH]1 [Fenbendazole, fenbendazole]', 'IC50', '9.85 µM'),
  ('CCC(C)C1OC2(CCC1C)CC1CC(CC=C(C)C(OC3CC(OC)C(OC4CC(OC)C(O)C(C)O4)C(C)O3)C(C)C=CC=C3COC4C(O)C(C)=CC(C(=O)O1)C34O)O2 (stereo not shown) [Ivermectin, ivermectin]', 'IC50', '2.61 µM'),
  ('CCCSc1ccc2nc(NC(=O)OC)[nH]c2c1 [Albendazole, albendazole]', 'IC50', '0.542 µM'),
  ('Cc1cc(-n2c(=O)[nH]c(=O)n(C)c2=O)ccc1Oc1ccc(SC(F)(F)F)cc1 [Toltrazuril, toltrazuril]', 'IC50', '20.3 µM'),
  ('CO[C@H]1C[C@H](O[C@H]2[C@H](C)O[C@@H](O[C@@H]3/C(C)=C/C[C@@H]4C[C@@H](C[C@]5(C=C[C@H](C)[C@@H](C6CCCCC6)O5)O4)OC(=O)[C@@H]4C=C(C)[C@@H](O)[C@H]5OC/C(=C\C=C\[C@@H]3C)[C@]54O)C[C@@H]2OC)O[C@@H](C)[C@@H]1O [Doramectin, doramectin]', 'IC50', '15.9 µM'),
  ('CC1(C)C(C=C(Cl)c2ccc(Cl)cc2)C1C(=O)OC(C#N)c1ccc(F)c(Oc2ccccc2)c1 (stereo not shown) [Flumethrin, flumethrin]', 'IC50', '441 µM');

###

- Test system: ZF4 (fibroblasts) cell line
- assay: ATP assay (ATP/LDH multiplex), ATP metabolism
- Type: cell-based, zebrafish (Danio rerio)
- assay-context: Danio rerio, Fibroblast; ATP - ZF4; read-out: IC50
pIC50: −log10 of the molar value.
Assign class by pIC50: not lower than 5 means 1 (yes); lower than 5 means 0 (no).

INSERT INTO assay_data (compound, class) VALUES
  ('COC(=O)Nc1nc2ccc([S+]([O-])c3ccccc3)cc2[nH]1 (stereo not shown)', '0 (no)'),
  ('CCCSc1ccc2nc(NC(=O)OC)[nH]c2c1', '1 (yes)'),
  ('CC1(C)C(C=C(Cl)c2ccc(Cl)cc2)C1C(=O)OC(C#N)c1ccc(F)c(Oc2ccccc2)c1 (stereo not shown)', '0 (no)'),
  ('CO[C@H]1C[C@H](O[C@H]2[C@H](C)O[C@@H](O[C@@H]3/C(C)=C/C[C@@H]4C[C@@H](C[C@]5(C=C[C@H](C)[C@@H](C6CCCCC6)O5)O4)OC(=O)[C@@H]4C=C(C)[C@@H](O)[C@H]5OC/C(=C\C=C\[C@@H]3C)[C@]54O)C[C@@H]2OC)O[C@@H](C)[C@@H]1O', '1 (yes)'),
  ('CCC(C)C1OC2(CCC1C)CC1CC(CC=C(C)C(OC3CC(OC)C(OC4CC(OC)C(O)C(C)O4)C(C)O3)C(C)C=CC=C3COC4C(O)C(C)=CC(C(=O)O1)C34O)O2 (stereo not shown)', '0 (no)'),
  ('Cc1cc(-n2c(=O)[nH]c(=O)n(C)c2=O)ccc1Oc1ccc(SC(F)(F)F)cc1', '0 (no)');
